target: ATP-dependent translocase ABCB1 (Homo sapiens, UniProt P08183); experiment: Inhibition of P-gp mediated efflux in adriamycin-resistant human HepG2 cells assessed as intracellular rhodamine-123 accumulation at 0.125 uM incubated in dark condition for 90 mins by flow cytometry relative to control; type: cell-based
Sequence (P08183 whole entry): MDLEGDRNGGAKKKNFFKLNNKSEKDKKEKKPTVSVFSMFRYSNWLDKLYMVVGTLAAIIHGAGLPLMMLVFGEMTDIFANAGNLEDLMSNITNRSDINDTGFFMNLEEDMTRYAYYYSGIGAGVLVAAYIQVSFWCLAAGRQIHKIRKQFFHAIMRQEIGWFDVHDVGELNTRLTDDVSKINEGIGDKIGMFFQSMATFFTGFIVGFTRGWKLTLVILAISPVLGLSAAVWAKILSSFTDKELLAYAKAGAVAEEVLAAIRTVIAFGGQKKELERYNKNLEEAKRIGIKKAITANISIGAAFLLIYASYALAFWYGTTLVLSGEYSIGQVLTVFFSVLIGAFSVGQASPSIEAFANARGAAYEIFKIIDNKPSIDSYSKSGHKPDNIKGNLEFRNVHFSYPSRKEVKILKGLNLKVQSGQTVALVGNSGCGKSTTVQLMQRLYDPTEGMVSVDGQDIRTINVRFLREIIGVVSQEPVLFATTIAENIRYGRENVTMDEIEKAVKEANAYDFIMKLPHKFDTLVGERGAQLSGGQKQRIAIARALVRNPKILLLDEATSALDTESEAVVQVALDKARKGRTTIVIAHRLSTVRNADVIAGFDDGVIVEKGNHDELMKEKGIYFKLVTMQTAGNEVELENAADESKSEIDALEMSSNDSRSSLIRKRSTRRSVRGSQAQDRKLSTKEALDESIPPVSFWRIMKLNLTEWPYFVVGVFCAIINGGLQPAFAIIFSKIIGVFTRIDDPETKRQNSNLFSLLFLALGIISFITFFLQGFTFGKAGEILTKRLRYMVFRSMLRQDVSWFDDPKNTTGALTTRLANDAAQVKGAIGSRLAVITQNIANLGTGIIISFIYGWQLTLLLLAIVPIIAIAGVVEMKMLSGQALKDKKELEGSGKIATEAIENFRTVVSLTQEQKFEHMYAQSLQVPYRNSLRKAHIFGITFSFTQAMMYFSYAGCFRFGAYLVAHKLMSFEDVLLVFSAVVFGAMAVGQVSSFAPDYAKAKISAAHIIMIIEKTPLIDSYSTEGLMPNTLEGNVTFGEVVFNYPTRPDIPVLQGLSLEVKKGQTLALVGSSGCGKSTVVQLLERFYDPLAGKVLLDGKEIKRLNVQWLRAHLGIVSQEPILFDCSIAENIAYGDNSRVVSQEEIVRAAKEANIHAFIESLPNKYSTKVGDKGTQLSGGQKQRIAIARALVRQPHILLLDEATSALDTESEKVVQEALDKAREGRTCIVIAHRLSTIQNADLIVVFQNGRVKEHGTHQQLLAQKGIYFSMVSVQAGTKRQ
Measured FC values are reported for all entries that follow.

- test.smiles: "CC(=O)O/C1=C(\\C)[C@H]2O[C@@](C)([C@@H](OC(C)=O)CC(C)(C)[C@H](OC(C)=O)[C@H]1OC(C)=O)[C@@H](OC(C)=O)[C@]1(OC(C)=O)[C@@H]2[C@@H](OC(=O)c2ccccc2)[C@@H](C)[C@@H]1OC(C)=O"
  FC: 1.81
- test.smiles: "CC(=O)O[C@@H]1C[C@@H](OC(=O)c2ccccc2)/C(C)=C/[C@H]2[C@@H](OC(=O)c3ccccc3)[C@@H](C)[C@H](O)[C@]2(OC(C)=O)[C@H](O)[C@](C)(O)CCC1(C)C"
  FC: 1.34
